Parameter: max response, negative = inhibition. Scope: all listed entries.
Target: Cruzipain (Trypanosoma cruzi) (UniProt P25779)
Sequence (P25779 123-467 limits assumed): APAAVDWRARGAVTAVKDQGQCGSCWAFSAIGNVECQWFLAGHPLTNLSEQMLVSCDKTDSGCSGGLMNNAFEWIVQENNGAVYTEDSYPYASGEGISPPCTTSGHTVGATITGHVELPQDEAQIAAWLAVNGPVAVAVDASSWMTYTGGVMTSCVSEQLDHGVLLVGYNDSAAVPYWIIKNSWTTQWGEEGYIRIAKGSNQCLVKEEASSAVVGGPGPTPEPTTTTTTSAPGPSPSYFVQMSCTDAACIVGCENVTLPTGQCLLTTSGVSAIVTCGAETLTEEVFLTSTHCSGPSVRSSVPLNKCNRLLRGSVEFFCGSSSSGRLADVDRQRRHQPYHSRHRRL
Assay: qHTS Assay for Promiscuous and Specific Inhibitors of Cruzain (with detergent);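 note: plate controls were neutral wells for no effect and buffer without enzyme for full effect; nearly all actives have a fitted effect of over 40% in size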
Details: purified cruzain, Z-FR-AMC fluorescence, 0.01% Triton
Among all 200,000 compounds or so, about 860 (0.43%) were called active. This is one part of a sample in which actives are shown more often than they occur.
Output spec: scalar in %, unitless text.

# annotated cases, reported max response, negative = inhibition shown
>  <compound>
Cc1ccc(S(=O)(=O)NC(=O)COc2ccccc2C)cc1

>  <max response, negative = inhibition (%)>
-0.523

$$$$
>  <compound>
CN(C)c1ccc(-c2nc(NCCN3CCOCC3)c3ccccc3n2)cc1

>  <max response, negative = inhibition (%)>
-4.87

$$$$
>  <compound>
COCCNC(=O)COc1ccccc1C

>  <max response, negative = inhibition (%)>
1.74

$$$$

Ask: Suppose we examine the compound Clc1ccccc1-c1cc(NCCN2CCOCC2)ncn1 ; what max response, negative = inhibition value has been reported?
Result: 0.682

Ask: Item CCOc1cc(-c2nnc(SCC(=O)NC3CCCCC3)nc2-c2ccc(OC)c(OCC)c2)ccc1OC has what recorded max response, negative = inhibition?
Result: 0.915

Ask: # max response, negative = inhibition lookup, item CCOc1ccc(-c2nonc2NC(=O)c2oc3ccc(C)cc3c2C)cc1OCC
Result: -1.93

Ask: State the recorded max response, negative = inhibition for this entry: COC(=O)c1ccc(Cn2c(SCC(=O)N(C)c3ccccc3)nc3ccccc32)cc1
Result: -5.82

Ask: I am curious: what max response, negative = inhibition value has been reported for COc1ccc(CC(=O)NCCc2sc3nc(-c4ccc(OC)cc4)nn3c2C)cc1 ?
Result: -3.58

Ask: Which max response, negative = inhibition is reported for this compound? CCOC(=O)c1c(C)[nH]c(CCC(=O)Nc2ccc(OC)c(OC)c2)c1C
Result: 2.38

Ask: Which max response, negative = inhibition is reported for this compound? Cc1nnnn1/C(=C\c1ccccc1)C(=O)OCC(=O)N1CC2(C)CC1CC(C)(C)C2 (configuration not stated)
Result: -0.133

Ask: Look up max response, negative = inhibition: Cc1ccccc1CNC(=O)c1cccc(NC(=O)c2nsc3ccccc23)c1
Result: -4.52

Ask: Fill in: max response, negative = inhibition of CCCNC(=O)c1ccc2c(c1)ncn2-c1ccc(C)cc1C is ___
Result: 0.948

Ask: Please report the recorded max response, negative = inhibition for O=C(Nc1ccc(Br)cc1)c1ccc(Br)c(S(=O)(=O)NCc2ccccc2)c1 .
Result: -3.54

Ask: What measured max response, negative = inhibition goes with COc1ccc2[nH]c3c(c2c1)CCN(C(=O)CCC1CCCC1)C3c1ccc(F)cc1 (configuration not stated) ?
Result: 7.03

Ask: What value of measured max response, negative = inhibition is listed for Cc1ccc(NC(=O)CSc2nnc3[nH]c(=O)cc(C)n23)cc1Cl ?
Result: -1.01

Ask: Fill in: max response, negative = inhibition of Fc1ccc(-c2nc(Nc3cccc(Cl)c3)nc3c2COc2ccccc2-3)cc1 is ___
Result: -3.92

Ask: Can you share its max response, negative = inhibition? I mean this compound: CCOc1ccc(CNC(=O)c2cc(=O)[nH]c3ccc(S(=O)(=O)N4CCCCC4)cc23)cc1
Result: 0.425

Just for reference, PubChem BioAssay AID1478 is where these values come from.
